# credit: PubChem BioAssay (NCI)

Please respond with reported TGI for every item in the list.
- Test system: SK-OV-3 ovarian
- procedure_summary: NCI tumour cell line growth inhibition, 48 h

Using the record for CCN=C1NN=C(c2ccccc2)c2cc(Cl)ccc2N1 , report its TGI. 68.7 µM

What do you get for COC(=O)c1c2c(c(C)[n+]([O-])c1C)C(=O)C=C(NCc1ccc(Cl)cc1)C2=O ? 4.64 µM

What do you get for COc1ccc(CSCc2cc(OC)c(OC)c(OC)c2)cc1 ? > 100 µM

What do you get for [N-]=[N+]=Nc1ncc(-c2ccc(C(F)(F)F)cc2)c(NC2CCCCCC2)n1 ? > 10 µM

What do you get for CCOC(=O)CCc1c(C(=O)OCC)[nH]c(/C=C2/NC(=O)C(C)=C2CC)c1C ? > 100 µM

What do you get for CCOc1ccc(C2c3[nH]c4ccccc4c3CCN2C(=O)c2cccs2)cc1 (stereo not given) ? > 100 µM

What do you get for OCCNc1nc(NCCO)nc(Nc2ccc(C3=NN(c4cc(Cl)cc(Cl)c4)C(c4ccc(Cl)cc4)C3)cc2)n1 (stereo not given) ? 5.15 µM

What do you get for N#Cc1c(-c2ccccc2)c(C#N)c(=O)n(NS(=O)(=O)c2ccccc2)c1O ? > 100 µM

What do you get for O=C(O)CCC(=O)Nc1ccc2c(c1)S(=O)(=O)N(CC(=O)O)C2=O ? > 100 µM

What do you get for CC[C@@]1(O)C(=O)NCc2c1cc1n(c2=O)Cc2cc3cc4c(cc3nc2-1)OCO4 ? > 82.2 µM
